# Tested on: Bacillus subtilis
# ASSAY EXPLANATION: Antibacterial activity against Bacillus subtilis after 16 hr by serial dilution method
# Type: functional
RECORDED METRIC: MIC (µg/mL)

Lab book: MIC of CCOC(=O)c1cnn(C2CCNCC2)c1-c1ccccc1 noted as 3.12

Lab book: MIC of CCOC(=O)c1cnn(C2CCCCC2)c1-c1ccccc1 noted as 6.25

Lab book: MIC of CCOC(=O)c1cnn(-c2ccccc2Br)c1-c1ccccc1 noted as 1.61

Lab book: MIC of CCOC(=O)c1cnn(-c2ccc3ccccc3n2)c1-c1ccccc1 noted as 3.12

Lab book: MIC of CCOC(=O)c1cnn(-c2ccc(C(C)(C)C)cc2)c1-c1ccccc1 noted as 12.5

I: CCOC(=O)c1cnn(-c2ccc(F)cc2)c1-c1ccccc1
II: CCOC(=O)c1cnn(-c2ccc(C(F)(F)F)cc2)c1-c1ccccc1
Exercise: Could you tell me which of these two has the smaller MIC figure? First: I Second: II // output: label of the selected item
Solution: II
